Test system: rice (Oryza sativa) seeds, radicle
Test: Inhibition of radicle elongation of rice seeds
Settings: 50 µg/mL; 48 h, 25 °C, dark; mean of triplicate ± SD
readoutType: Inhibition Ratio (%) Seed Radicle Var. Lijiang
One number for each entry, in %.

[
  {
    "compound": "O=C(O)CNCP(=O)(O)O [Glyphosate, N-(phosphonomethyl)glycine, reference compound]",
    "quantitativeResult": 85.08
  }
]

[Q] What measured Inhibition Ratio (%) Seed Radicle Var. Lijiang goes with `CC[C@@]1(C)Oc2cc(ccc2O)[C@@H](O)[C@H](NC)C(=O)N[C@@H](C(C)C)C(=O)N[C@@H]1C(=O)NCC(=O)O` ?
[A] 11.89
